Assay: label from the status in PepcDB records

chain	protein production
KAEAEQNWWEGPPQDLSVHLWYAGPMERAGAESILANRSDGTFLVRQRVKDAAEFAISIKYNVEVKHIKIMTAEGLYRITEKKAFRGLTELVEFYQQNSLKDCFKSLDTTLQFPFKEPEKRTISR	not failed
MTLWQLIKAEIRSVLTNPVVTLTVFGGVVFYSFLYPLPYAQQTPREQPIAVVNLDGSQTSLKLERMVDATPQVKIVSRLHTVEDAKQAFLNREITGFLVIPEHFYKDVMLGKSPTLAYAADASYFLVYGTVVEGLAQAGGTLGAQVKVSKMVIEGVPLSLASHNYSAIKLNMKPTFNPTMGYIEYVVPAVFVLILQQTLIMAVGLQTGSQRHGRGYWSQVSTGSLLLVRTLVFIAIYYLLSAYYFGFSFERLSVNHIAKAGELLTMLFPFLLGCCGLGFWLGYLLPRRELVTLVVLVSSMPLIFLAGFIWPVESIPAPLLWIADLSPSTWSIKGFLALNQMGATWQQVAKHWTALWLLVALWGGVAYWIAKRNNKPVVTESLS	failed
MTRYLRLSGLEPFVLTPDIPFVNVGERTNVTGSARFRKLITNRDYAAALEVARDQVQNGAQILDVNMDEGLIDSKAAMVEFLNLIASEPDIARVPLMIDSSKWEVIEAGLKCVQGKPVVNSISLKEGEESFRRQAGLCLAYGAAVVVMAFDEEGQADSFARKTTICARAYRILVEEVGFPPEDIIFDPNVFAVATGIEEHDNYGVDFIEAARWIRANLPHAHVSGGVSNLSFSFRGNEPVREAMHAVFLYHAIRAGMDMGIVNAGQLAVYDQIDPDLREACEDVVLNRKPKQGGTATERLLALAER	failed
MKILLIGGSGNIGRAIAAELSGRHEIIAAGRHHGDVRVDIEDEQSIAAMYRQLPRLDAVAVATGGRNGHVGPLAEMNAERYRVGLDAKLMGQVNLVLRGLDKVADGGSFTLVGGAWQPQAIVPLLSNVYMANAALEGFVNAAAVELPRRLRINLVSPLLLAESEAEYGPLFRGVPLVEARQVARAYSLSIEGAQTGQTYRLGRLDLEHHHHHH	not failed
MDRSLLMAIIMLVLGNNIVILSDSLIKLLDGFEAPFQFVLYRQISATLMLLPFMLLFKRPLLPKNIRWHATRAHIFLLGTVFMVISLTTLPLATANAIFYAAPIITVVLARMFFKERVTRLSLITAVLGMVGVLVIVNPSSTNIFALAALVVATTLALNNLLVKKLPAEHSILDTLYLTNLLGIPLASAMAWFEGASFDVSTFLISVGSSLFAMIYAGTCVFAYRAAESNKVTSAEYTGLIGAVILGIVFFTETPDARFYIGSVLIIAPLTVLTLRNSNRSA	failed
MDLNRMGKDEYYVQITVDGKEVHSKADNGQKYKDYEYKLTGFDKDGKEKELEFTAQKNLRKEAFLRVYHSDKKGVSAWEEVKKDELPAKVKEKLGVKLEHHHHHH	not failed
MEFVLASASPARRRLLQGIGINPIVHVSHFDESQIHHDDPAQLVEALAAAKAKTVAQHRQDALILGCDSVLHVRGEILGKPASPTEAIARWQTMRGHYGLLYTGHALVDQTQNQLLVRHGVTKVYFAAIDDDTIAAYVRSGEPLQCAGCFALEGKGGLFIEKIEGCHSNVIGLSLPLLREMLAHLGYTVQTLWP	failed
MANIVFIATSLDGYIADKRGKLDWLHSVPNPNNVDTGFVALMERVDGLVMGRNTLDMVLSFDCDWPYSKPVFVLSNTMTEVPQGYEDKVFLVKGKLVDIIADLNAKGFNELYIDGGVTIQNFLKEDLIDEMVITRFPILLGGGVPLFGELESSLSFNVIKSEVVLDSLTQTTYHRKRA	not failed
MAPTLAGPNVAGDCFPGASGCIVLPMSGSLSLHIAAFLALLPAAFTPLRQTPGRDGLFWGTLGVAIIGALVVSIVPSLRQGMWSTSFSSALWVSIAATLLLFSELCFRHQAAWRLTPVLMPYLIALGAMATIWEGAEGAPLADHAPAFWTVLHIVIAVLTYGMLTLGAVAALAGFLQERALKARRPTSLTRRLPAAAEADRLSWILLYTSEWVLGAGLLTGMAVEYLETGAILQPDHKSMLSSLAFLVIGGLILARSRWGVRGRVGARVVLLAYLLLTLAFPGVKFVSDVLL	failed
MLLAVEGGGLFSASASGYSKGLTLLFSGDKDVDRPMRVVPWNHYQVVDQEPEADPVLQLDSIKNRVSRGCAASFSCFGGASAGLETPSPLKVEPVQQQHREISSPESVVVVSEKGKDQISEADNGSSKEAFKLSLRSSLKRPSVAESRSLEDIKEYETLSVDGSDLTGDMARRKVQWPDACGSELTQVREFEPRYV	failed
MELFTLGACRQVGKSCFVLKTSEGLVMLDCGLHPSYQDDRRYPNFSLAFSYGPLKAVFITHCHADHVGALPILTERWGYDGPIYMSEPTRKLSYYILEECVGSWGGDDEWTDSSRSEWSYTQREVESCLTKVTIMEPGQSISVGENVQVHSWMAGHVLGAYMFSIVVDNHRILYTGDFTSCPTFHLPPARVDDIPYPPDVILSEATYATSFKDGRLNNQVEFIQNVLDCLLDGGKVLVPVFAIGRAQELLLLLGK	not failed
MNKGKFALLFTFAACFAVIVFFWLLAVPPENFTADRIVMVLLISPIFAILLAFNLSRFLKQHGYSLRQVHVALEQNIADFIYEFQRLVFIHLMPIAFLGALIFYYGEFTPAIAEFLSLFALIFALSPLLFLGISFFVAMLQVYERVRKKSLLRANFFNFWIWIHLFVILLIIISKVLVQPSELPFQKAYFKALNDGVFNLLIIATMNAIFGVTGRMVAREKFPILLHLSIPLVNSFVAVKILMA	failed

###

Test: label from the status in PepcDB records

chain	protein production
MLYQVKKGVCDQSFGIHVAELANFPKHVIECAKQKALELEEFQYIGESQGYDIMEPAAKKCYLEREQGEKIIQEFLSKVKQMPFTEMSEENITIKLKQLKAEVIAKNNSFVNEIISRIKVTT	failed
MQFIWAALGLVCVALALIGVALPLLPTVPFLLLAAFFFARSSERLHTWLVTHRLFGPMILDWQQSGAIRPGAKKAATLSIAAVFGLSLVFAVPSHVLLIQAVVLSGVLIFIWTRPNG	failed
MHNKKWDLRIICAHAFTILIWGSAFPAIRMGLASYTPEHLTLLRLLIASFILLLFSFIYKLRIPDLKDIPAIFIFGALGFTFYHIALNYGEKTVNAGSASLIVSVTPIVTAILASIFLNEKMKLNGWIGGGISFIGIALISFSQGDAIQLNSGGFFILLAAISESLYFVFQTSYLKKYGFLPFTIYTILSSTVCMLIFFPGMYTEILAAPLEVNMSVIYLGLFPTVLPYIALAYIISHSGAAEATSSLYLTPVTACFVAWIWLGEVPTFVSIIGGGITILGILIVHIPVLRKEKHRNLANNQSV	failed

###

Assay: label from the status in PepcDB records

chain	protein production
MFRCQTKGWCKSLKPKVFLEFVEIKSLIASVLPFVLGSMYAYYNYHQLHLGYLLLFFIASSLFHMATNANDNYQDFLHAPRNDDNQEFLQETNVVGVNQISIGQARTITFGLAGISLIIGLWLVTQTGLPLLWMGLYSYAVGYFYAGGPKPISQGPFGEFFSGFTMGFMIFWIAVFINTYDTAAITWQSTLAVLIASGLAIFAISNIMLANNICDMDEDIALGRHTILYYLGKPVMLQVFAWSYVAGYACLVIAVLMGVLPKFSLLTLLSIIPVWKNTRVFLHKQVKRETFTISIKNATLICLSFIVFMGLGLIFN	failed
GMQGFFFNTRREIFKDKRVREALFYAFDFEWANKNLFFSQYKRTTSFFSNSIYASPPLPSPEEKALLAPYEKSLDERVFKEPYVVPRTDGVDVLGYNLRENLKYAQKLLESTGFSYKNMRLVDKNNKPFSFTLLLNSPAFERLALAFAKNLRVLGIEMKIQRVDLSQYVNRIKSYDFDMIVGVIGQSSFPGNEQRFYFGSLSAKEKGTRNYAGISSKAVDDLIEKIINAKDYKEQLAAIQAMDRVLLWGFYVIPHFYLP	failed

###

Test: label from the status in PepcDB records
property.name: protein production

chain	property.name	result
MKKRNISVPSKAYLALIIATLCWGGNTVAGKLAVGHISPMAFTFLRWVLAVAIIFAISVPQLIKDWPVVKQRLPYFFVLGSVGYTAFNVFLYTALQHTSAINAAVIQAGIPMVIFVLNFVLFRTRVLFGQIAGFCLTISGVALLASHGDPLSLLQLEMNVGDAVMLLAVLVYAIYTVILRWKPAVDWRTLMAIPAFFALLTSVPLVFFEMSRESLIWPDQKGWMLVVYAGIFASLIAQILYIKGVEQIGANRAGLFINLVPVFGTLLSVFVLSETLHTYQIAALFMALAGIAVAERKKSPAS	protein production	failed
NFVPGMEFSMADASSIAIIGGADGPTAIFLASQLSPDLLGAIAVAAYSYMALVPIIQPPIMKALTTPEERKIKMAQLRHVGKTEKIVFPLV	protein production	failed
